biological target: Histamine H1 receptor (Cavia porcellus) (UniProt P31389); test: Antagonistic activity (H1 antagonism) evaluated by the inhibition of histamine-stimulated contraction in guinea pig ileum at a concentration of 1E-7 - 1E-4 M; format: functional, tissue-based
Sequence (P31389 whole entry): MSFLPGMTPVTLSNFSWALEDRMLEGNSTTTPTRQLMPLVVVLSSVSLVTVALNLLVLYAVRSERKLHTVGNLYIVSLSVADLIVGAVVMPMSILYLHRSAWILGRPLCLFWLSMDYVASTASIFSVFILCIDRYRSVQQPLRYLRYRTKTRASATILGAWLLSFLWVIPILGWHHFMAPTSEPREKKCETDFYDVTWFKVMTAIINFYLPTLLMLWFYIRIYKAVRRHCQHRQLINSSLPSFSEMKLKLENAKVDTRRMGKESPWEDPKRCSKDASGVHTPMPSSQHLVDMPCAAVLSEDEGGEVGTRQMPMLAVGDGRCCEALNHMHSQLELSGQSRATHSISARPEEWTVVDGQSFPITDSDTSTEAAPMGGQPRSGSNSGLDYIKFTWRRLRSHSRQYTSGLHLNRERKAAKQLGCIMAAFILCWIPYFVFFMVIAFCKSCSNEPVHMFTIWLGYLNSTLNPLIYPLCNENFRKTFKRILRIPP
reportedEndpoint: pKB
Form field (numeric): enter value without unit.

Example cases with answers are listed next.
Q: Fill in pKB for record N=C(N)NCCC(c1ccc(F)cc1)c1ccccn1 (stereo not given)
Result: 6.44

Q: Give pKB for N=C(NCCCc1c[nH]cn1)NCCC(c1ccc(Br)cc1)c1ccccn1 (stereo not given)
Result: 6.92

Q: Recall and state the measured pKB for N=C(NCCCc1c[nH]cn1)NCCC(c1cc(F)cc(F)c1)c1ccccn1 (stereo not given) .
Result: 6.56

Q: Identify measured pKB corresponding to Clc1ccc(C(CCC/N=C(/NCCCc2c[nH]cn2)NC2CCCCC2)c2ccccn2)cc1Cl (stereo not given)
Result: 5.76

Q: Respond only with pKB recorded for Brc1ccc(C(CC/N=C(/NCCCc2c[nH]cn2)Nc2ccccc2)c2ccccn2)cc1 (stereo not given)
Result: 5.81

Q: Return reported pKB. Input compound: O=C(CCC(c1ccc(F)cc1)c1ccccn1)NCCCc1c[nH]cn1 (stereo not given)
Result: 3.97

Q: Supply recorded pKB for Brc1ccc(C(CC/N=C(/NCCCc2c[nH]cn2)NC2CCCCC2)c2ccccn2)cc1 (stereo not given) here.
Result: 5.42

Q: Give the measured pKB for CN(CCC(c1ccc(F)cc1)c1ccccn1)C(=N)NCCCc1c[nH]cn1 (stereo not given)
Result: 5.96

Q: Given N=C(NCCCc1c[nH]cn1)NCCCC(c1ccccc1)c1ccccn1 (stereo not given) , respond with its pKB.
Result: 6.06

Would you kindly look at the next entry?
Q: Given CN/C(=N\CCC(c1ccc(Br)cc1)c1ccccn1)NCCCc1c[nH]cn1 (stereo not given) , respond with its pKB.
Result: 5.71

---

Target: Neuropeptide Y receptor type 1 (Homo sapiens) (UniProt P25929)
Sequence (whole entry): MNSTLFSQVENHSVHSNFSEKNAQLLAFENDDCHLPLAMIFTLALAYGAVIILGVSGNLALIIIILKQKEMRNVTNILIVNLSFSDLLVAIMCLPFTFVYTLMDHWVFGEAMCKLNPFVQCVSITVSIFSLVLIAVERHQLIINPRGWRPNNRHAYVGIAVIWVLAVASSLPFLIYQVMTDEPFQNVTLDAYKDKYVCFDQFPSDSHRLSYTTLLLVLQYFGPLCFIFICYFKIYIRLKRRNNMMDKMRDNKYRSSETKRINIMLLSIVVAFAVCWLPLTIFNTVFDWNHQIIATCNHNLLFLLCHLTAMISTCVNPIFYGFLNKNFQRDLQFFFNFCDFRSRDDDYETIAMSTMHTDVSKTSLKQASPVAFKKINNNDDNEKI
Test: Tested for inhibition of NPY-induced increase in [Ca2+] at 100 uM concentration in human erythroleukemia cells
Type: functional
Quick list: inhibition per entry.
State just the number; it will be interpreted in %.

Q: Identify measured inhibition associated with N=C(NCCCc1c[nH]cn1)NCCC(c1ccc(Cl)c(Cl)c1)c1ccccn1 (stereo not given)
Result: 93

Q: Give the reported inhibition for this compound. N=C(NCCCc1c[nH]cn1)NCCC(c1ccc(Br)cc1)c1ccccn1 (stereo not given)
Result: 85

Q: Kindly indicate its recorded inhibition. Item: N=C(NCCCc1c[nH]cn1)NCCC(c1cc(F)cc(F)c1)c1ccccn1 (stereo not given)
Result: 62

Q: Give the reported inhibition for this compound. Brc1ccc(C(CC/N=C(/NCCCc2c[nH]cn2)Nc2ccccc2)c2ccccn2)cc1 (stereo not given)
Result: 76

Q: Output inhibition of N=C(NCCCc1c[nH]cn1)NCCC(c1ccccc1)c1ccccn1 (stereo not given)
Result: 69

Q: Determine from records and report inhibition for Clc1ccc(C(CCC/N=C(/NCCCc2c[nH]cn2)Nc2ccccc2)c2ccccn2)cc1Cl (stereo not given)
Result: 78

New cases:
Q: Please indicate inhibition recorded for Fc1ccc(C(CCCNCCCc2c[nH]cn2)c2ccccn2)cc1 (stereo not given)
Result: 24

Q: Identify measured inhibition corresponding to CN/C(=N\CCC(c1ccc(Br)cc1)c1ccccn1)NCCCc1c[nH]cn1 (stereo not given)
Result: 38

Q: Supply reported inhibition belonging to this compound: Cc1ccc(CC(CC/N=C(/NCCCc2c[nH]cn2)NC2CCCCC2)c2ccccn2)cc1 (stereo not given)
Result: 75

Q: // fetch inhibition given entry NC(=O)N/C(=N\CCC(c1ccc(F)cc1)c1ccccn1)NCCCc1c[nH]cn1 (stereo not given)
Result: 62
